B1: Membrane-associated guanylate kinase, WW and PDZ domain-containing protein 2, residues 601 to 682; numbered along this chain, Q86UL8 (parent)
chain: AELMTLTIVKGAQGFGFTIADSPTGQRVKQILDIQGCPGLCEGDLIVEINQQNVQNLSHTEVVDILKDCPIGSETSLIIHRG

# Variants of: B1
# Procedure Details: abundance fitness (aPCA) (normalised: wild type 0, dead -1); higher = more abundant; growth selection in yeast, the domain comes from the species named
# Measurement Setup: Homo sapiens
Bucketed by reported abundance fitness, buckets being class A (below -0.2), class B (-0.2 to below -0.02), class C (-0.02 or more)

{"Mutation Notation": "G25D", "Class Name": "class A"}
{"Mutation Notation": "G82P", "Class Name": "class B"}
{"Mutation Notation": "Q55K", "Class Name": "class A"}
{"Mutation Notation": "S73H", "Class Name": "class C"}
{"Mutation Notation": "D21L", "Class Name": "class C"}
{"Mutation Notation": "D68P", "Class Name": "class A"}
{"Mutation Notation": "P23L", "Class Name": "class C"}
{"Mutation Notation": "D68H", "Class Name": "class C"}
{"Mutation Notation": "E74K", "Class Name": "class A"}
{"Mutation Notation": "N50M", "Class Name": "class B"}
{"Mutation Notation": "S58R", "Class Name": "class B"}
